The entries below come with measured IC50 values attached.
Test system: A549
protocolDescription: Cytotoxicity against human A549 cells after 48 hrs by MTT assay
Type: functional, cell-based
testParameters: A549, 48 h
property: IC50 (µg/mL)

>>> df
                             moleculesmiles  testedon  property  resultoperator  reportedresult
0  CCC(=O)O[C@@H]1CC(C)(C)C[C@H]2C3=CC[C@@H]4[C@@]5(C)CCC(=O)C(C)(C)[C@@H]5CC[C@@]4(C)[C@]3(C)CC[C@@]12C(=O)OC      A549      IC50               =            28.4
1  COC(=O)[C@@]12CC[C@]3(C)C(=CC[C@@H]4[C@@]5(C)CCC(=O)C(C)(C)[C@@H]5CC[C@]43C)[C@@H]1CC(C)(C)C[C@H]2OC(C)=O      A549      IC50               =            36.8
2  COC(=O)[C@@]12CC[C@]3(C)C(=CC[C@@H]4[C@@]5(C)CCC(=O)C(C)(C)[C@@H]5CC[C@]43C)[C@@H]1CC(C)(C)C[C@H]2OC(=O)c1ccccc1      A549      IC50               >             100
3  CC(=O)O[C@@H]1CC(C)(C)C[C@H]2C3=CC[C@@H]4[C@@]5(C)CCC(=O)C(C)(C)[C@@H]5CC[C@@]4(C)[C@]3(C)CC[C@@]12C(=O)O      A549      IC50               =            36.8
